Where do the numbers come from? From PubChem BioAssay AID743483.

Tested on: A549 viability, CellTiter-Glo ATP luminescence, 72 h
Experiment: A549 lung cell viability reduction – CellTiter-Glo luminescence, dry powder, cytotoxicity control, dose response (AID 743483)
metric-name: IC50

Problem: Dear colleague, I am looking for the recorded IC50 of the following molecule: "COc1ccc(S(=O)(=O)N(C)C[C@@H]2OCCCC[C@H](C)Oc3ccc(NS(=O)(=O)c4ccc(Cl)cc4)cc3C(=O)N([C@@H](C)CO)C[C@@H]2C)cc1"
Solution: 22.1 µM

Problem: Repeat with "C[C@H]1CCCCO[C@@H](CN(C)S(=O)(=O)c2ccc(Cl)cc2)[C@@H](C)CN([C@@H](C)CO)C(=O)c2cc(NC(=O)NC3CCCCC3)ccc2O1"
Solution: 19.1 µM

Problem: Check "C[C@@H]1CN([C@H](C)CO)C(=O)c2cc(NC(=O)C3CCCCC3)ccc2O[C@@H](C)CCCCO[C@H]1CN(C)C(=O)Nc1cccc2ccccc12" too.
Solution: 21.8 µM

Problem: Same question, "C[C@@H]1CN([C@@H](C)CO)C(=O)c2cc(NC(=O)C3CCCCC3)ccc2O[C@@H](C)CCCCO[C@H]1CN(C)C(=O)Nc1cccc2ccccc12" this time
Solution: 6.41 µM
